Hello, the source for this data is the DeepSol protein solubility set, in case you need it.

- assay_overview: soluble on expression in E. coli; label from the status in PepcDB or PDB records
observed_property: soluble on expression in E. coli

[
  {
    "polymer_sequence": "MAGQVVVNDHLADKAGLQVPVEAEIRLKGEDIPFVSRGGLKLARALEEFGIDVADMTAIDVGASTGGFTDCLLQRGARKVYAVDVGYGQLAWKLRQDSRVVNLEKTNIRYLEPGALPETPGLAVIDASFISLDKVLPSTLRLIGEEGVIVALIKPQFEVGRGEVGKGGVVRDEEKHRRVIADVVALAEGLGLMVLGVTESPILGPKGNREFLIHLKKAVGETPPHNR",
    "observed_property": "soluble on expression in E. coli",
    "experimental_result": "not soluble"
  },
  {
    "polymer_sequence": "TARELLDADRGRDSMVAAAYHSGTLSGKTVTEAARQGDVFAIEVFDDFAEWMGRALSIVCDVLDPGQIVIGGGLSTSSDLFLEKATQHMAQQIVGAGYRPLPTVVCAELGGDAGMIGVSDLARRRV",
    "observed_property": "soluble on expression in E. coli",
    "experimental_result": "not soluble"
  }
]

###

- assay_overview: soluble on expression in E. coli; label from the status in PepcDB or PDB records
observed_property: soluble on expression in E. coli

[
  {
    "polymer_sequence": "MERKLFAFDIDGTLLNSEKKALDSTREALAKLREQGHLVTLATGRSRYMAQEVIWDLDFTNYVLCNGAAAFVDHEQYYQNLLHAEALERLAQDSDQRGLGFACVGLDDIKKSNQHRAEKMEIAMNSFHFHSPAYDEHFYRQNDIYQALAFYDAEDQCTFEEEYPEFRFIRWHQHSVDVVPKDGSKSATLTYLAKRVGIDAKNIIAFGDGENDREMLSHAGIGVAMGNASPSIQKVATMVTDTNDNDGIWKALKEMKAI",
    "observed_property": "soluble on expression in E. coli",
    "experimental_result": "not soluble"
  },
  {
    "polymer_sequence": "MSNPTKISILGRESIIADFGLWRNYVAKDLISDCSSTTYVLVTDTNIGSIYTPSFEEAFRKRAAEITPSPRLLIYNRPPGEVSKSRQTKADIEDWMLSQNPPCGRDTVVIALGGGVIGDLTGFVASTYMRGVRYVQVPTTLLAMVDSSIGGKTAIDTPLGKNLIGAIWQPTKIYIDLEFLETLPVREFINGMAEVIKTAAISSEEEFTALEENAETILKAVRREVTPGEHRFEGTEEILKARILASARHKAYVVSADEREGGLRNLLNWGHSIGHAIEAILTPQILHGECVAIGMVKEAELARHLGILKGVAVSRIVKCLAAYGLPTSLKDARIRKLTAGKHCSVDQLMFNMALDKKNDGPKKKIVLLSAIGTPYETRASVVANEDIRVVLAP",
    "observed_property": "soluble on expression in E. coli",
    "experimental_result": "soluble"
  },
  {
    "polymer_sequence": "METNALDVNKQSWDQAAPRFFARNPLPEYGPLAPSEEELHLFGDVDRLKVLEIGCGSGHSLKYLDEKQAGELWGIDLSTKQIEAAQTVLKDSKAPVTLFESPMEVNPGLPTDYFDIVFSIYALGWTTNLTKTLENVYRYLKPGGSFIFSWEHPMYNRVRQHQHGLTVDKSYHEEGAYAHEAWSSPAIMQQYRLSTYLNHLIDHGFKVERVIEDVCLADAQKHTNGWYGYEKAQMIPTTLIIKCLKQLEHHHHHH",
    "observed_property": "soluble on expression in E. coli",
    "experimental_result": "not soluble"
  },
  {
    "polymer_sequence": "MSAKHPIIAVTGSSGAGTTTTSEAFRKMFNMMSIKPAWVEGDSFHRFTRPEMDVEIRKAREQGRHISYFGPQANDFPTLEEFFRQYGKVGTGQVRRYLHTFDEAVPYNQMPGTFTPWQSLPENSDVLFYEGLHGGVVDGDVNVAQHVDFLIGMVPIVNLEWIQKYVRDTRDRGHSREAVMDSIVRSMDDYLKFITPQFSRTHINFQRVPTVDTSNPLNAKGIPTLDESFVVIRFRGIKNVDFPYLLAMIDGSFMSRHNTIVVPGGKMSFAMDLIVRPLLQQLIETGKIG",
    "observed_property": "soluble on expression in E. coli",
    "experimental_result": "not soluble"
  },
  {
    "polymer_sequence": "STVLIVSQEHQKIKTYINTVADRGVTEIPVKGGYSGTNQIMLMTTIAGYEFAKLQEAIAEIDETAFITVTPTSQASGRGFSLQKNHGRLDEDILMPM",
    "observed_property": "soluble on expression in E. coli",
    "experimental_result": "not soluble"
  },
  {
    "polymer_sequence": "MRKPIEHTADIAYEISGNSYEELLEEARNILLEEEGIVLDTEEKEKMYPLEETEDAFFDTVNDWILEISKGWAPWRIKREGNELKVTFRKIRKKEGTEIKALTYHLLKFERDGDVLKTKVVFDT",
    "observed_property": "soluble on expression in E. coli",
    "experimental_result": "not soluble"
  },
  {
    "polymer_sequence": "MLARVCERTPISTPAWTDTLTRLAPDASSVLARGPWTWKYALPPAVVGVAALAASSPWGVVGVALAAFVVWFHRDPDRSPNGAGVVVPADGTVSVIRTRDDGRVRVGVFMNVHNVHVNRVPVAGRVESVVHEPGGHRPAFSKESAHNERVRIETAEWTVVLIAGAFARRIHPYVEAGEDLARGDRLGHISFGSRADVVLPPAYDRGDVVVESGQTVRAGETVLARLEHHHHHH",
    "observed_property": "soluble on expression in E. coli",
    "experimental_result": "soluble"
  },
  {
    "polymer_sequence": "LPKVSEDHLAARRSQILDGARRCFAEYGYDGATVRRLEEVTGLSRGAIFHHFKDKDGLFLALAHEDATRMADVVAHEGLVQVMRDMLAQPEQFDWLGTRLEIARRLRNDPDFRRSWSQRSAELTEATMARLARQKSAGRLRDDVPTDVLIGYLDLVLDGLVARIASGHAGDNLSAVLDLVEESVRRRD",
    "observed_property": "soluble on expression in E. coli",
    "experimental_result": "not soluble"
  },
  {
    "polymer_sequence": "MGLRDRFSNYLFKKAEKRGYLDNVLGKSIRYSGVYVTDSNILQSSDVYELLQDISNQMVLADIVVEDEFGNEIKDDIALQILRNPNNYLTQSEFIKLMTNTYLLEGETFPILNGAQIHLASNVFTELDDNLVEHFNIGGHEIPPCMIRHVKNIGADHLRGKGILDLGRDTLEGVMSAEKTLTDKYKKGGLLTFLLNLDAHINPQNGAQSKLINAILDQLESIDEARSVKMIPLGKGYSIDTLKSPLDDEKTLAYLNVYKKDLGKFLGINVDTYTELIKEDIEKAMMYIHNKAVRPIMKNFEDHLSLLFYAQNSGKRIKFKINILDFVTYSNKTNIGYNLVRTAITSPDNVADMLGFPKQNTKESQAIYISNDVTEIGKKEATDGSLGGGEENEN",
    "observed_property": "soluble on expression in E. coli",
    "experimental_result": "not soluble"
  },
  {
    "polymer_sequence": "RTEVVAVALDTSLEELKGRFVESGISKIIVYDGNIDNVVGYIHSSEMFRSPKDWRNHVKEVPIVPETMAAHKLMKLFMQQKKTIAVVVDEFGGTSGIVSLEDLVEEIFGDIEDEHDNTSYICKQIGE",
    "observed_property": "soluble on expression in E. coli",
    "experimental_result": "not soluble"
  },
  {
    "polymer_sequence": "MEKQEEEDVKRRQRQKAATSLGFLHWEELKNHGDLSKVALNIALTTLVDDASTGFCIMNLVNLIVLRESSQGYLLTYEGKLASLASATYVKAFISLWVLEDAERHAWSFRTFSLTFPLDDPILDTFLELTGVTEAGEFVYAPTTLQSPFHALYFDPQRNSFRRVIYEGLADDEFRRRNRLGYERHHILPNHIESLISL",
    "observed_property": "soluble on expression in E. coli",
    "experimental_result": "soluble"
  },
  {
    "polymer_sequence": "MSASAPAAEGEGTPTQPASEKEPEMPGPREESEEEEDEDDEEEEEEEKEKSLIVEGKREKKKVERLTMQVSSLQREPFTIAQGKGQKLCEIERIHFFLSKKKTDELRNLHKLLYNRPGTVSSLKKNVGQFSGFPFEKGSVQYKKKEEMLKKFRNAMLKSICEVLDLERSGVNSELVKRILNFLMHPKPSGKPLPKSKKTCSKGSKKERNSSGMARKAKRTKCPEILSDESSSDEDEKKNKEESSDDEDKESEEEPPKKTAKREKPKQKATSKSKKSVKSANVKKADSSTTKKNQNSSKKESESEDSSDDEPLIKKLKKPPTDEELKETIKKLLASANLEEVTMKQICKKVYENYPTYDLTERKDFIKTTVKELIS",
    "observed_property": "soluble on expression in E. coli",
    "experimental_result": "soluble"
  }
]
